Entries with reported Ki on Thermolysin (Bacillus thermoproteolyticus, UniProt P00800)
A number alone suffices; assume nM.

Recorded results for 4 molecules are shown here.
molecule	value type	endpoint result
CCCNC(=O)[C@H](C)NP(=O)(O)CNC(=O)OCc1ccccc1	Ki	12400
CC(C)CCNC(=O)[C@H](CC(C)C)NP(=O)(O)CNC(=O)OCc1ccccc1	Ki	69
CC[C@H](NC(=O)[C@H](CC(C)C)NP(=O)(O)CNC(=O)OCc1ccccc1)C(=O)O	Ki	4.9
CCNC(=O)[C@H](C)NP(=O)(O)CNC(=O)OCc1ccccc1	Ki	56200

Could you share which Ki value was measured for `C[C@H](NP(=O)(O)CNC(=O)OCc1ccccc1)C(=O)N[C@@H](Cc1ccccc1)C(=O)O` ?
31100

And what about the molecule `CCCNC(=O)[C@H](CC(C)C)NP(=O)(O)CNC(=O)OCc1ccccc1` ?
60

And what about the molecule CCC(C)[C@H](NC(=O)[C@H](CC(C)C)NP(=O)(O)CNC(=O)OCc1ccccc1)C(=O)O (some centres undefined) ?
12

And what about the molecule `CC(C)C[C@H](NP(=O)(O)CNC(=O)OCc1ccccc1)C(=O)NCC(C)(C)C` ?
100

And what about the molecule `CC(C)CNC(=O)[C@H](CC(C)C)NP(=O)(O)CNC(=O)OCc1ccccc1` ?
37

* * *

assayed system: Thermolysin (Bacillus thermoproteolyticus)
Sequence (P00800 whole entry): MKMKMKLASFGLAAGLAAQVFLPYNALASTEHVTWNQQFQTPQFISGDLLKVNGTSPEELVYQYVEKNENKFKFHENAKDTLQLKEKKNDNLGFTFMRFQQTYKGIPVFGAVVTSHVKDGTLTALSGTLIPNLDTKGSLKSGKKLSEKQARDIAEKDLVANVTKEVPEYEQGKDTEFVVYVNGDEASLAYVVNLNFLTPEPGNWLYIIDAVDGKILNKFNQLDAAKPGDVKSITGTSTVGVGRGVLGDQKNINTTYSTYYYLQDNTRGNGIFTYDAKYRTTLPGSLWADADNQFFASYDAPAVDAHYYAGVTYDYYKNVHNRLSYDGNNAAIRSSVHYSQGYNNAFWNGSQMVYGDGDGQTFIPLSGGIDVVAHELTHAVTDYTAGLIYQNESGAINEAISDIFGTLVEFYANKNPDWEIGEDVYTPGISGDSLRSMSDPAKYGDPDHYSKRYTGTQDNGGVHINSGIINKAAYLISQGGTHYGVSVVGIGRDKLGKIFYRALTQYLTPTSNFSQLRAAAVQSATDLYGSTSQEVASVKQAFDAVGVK
Examples of molecules with documented Ki follow.
A number alone suffices; assume µM.

Recorded results for 4 molecules are shown here.
molecule	assayed system	Ki / µM
CCC(C)CNC(=O)[C@H](CC(C)C)NP(=O)(O)CNC(=O)OCc1ccccc1 (stereo not given in full)	Thermolysin (Bacillus thermoproteolyticus)	0.026
CCC[C@H](NP(=O)(O)CNC(=O)OCc1ccccc1)C(=O)NCCC(C)C	Thermolysin (Bacillus thermoproteolyticus)	0.219
CCCCCNC(=O)[C@H](CC(C)C)NP(=O)(O)CNC(=O)OCc1ccccc1	Thermolysin (Bacillus thermoproteolyticus)	0.059
CC[C@H](NP(=O)(O)CNC(=O)OCc1ccccc1)C(=O)NCCC(C)C	Thermolysin (Bacillus thermoproteolyticus)	1.97

Could you share which Ki value was measured for `CCC[C@H](NC(=O)[C@H](CC(C)C)NP(=O)(O)CNC(=O)OCc1ccccc1)C(=O)O` ?
0.0055
